System: UMUC3
Test: Cytotoxicity against human UM-UC-3 cells assessed as decrease in cell viability after 72 hrs by CCK8 assay
Type: functional, cell-based
Conditions: UMUC3, 72 h
value-kind: IC50 (µM)
Numeric only. Scale: µM

Lookup: Which value of IC50 has been reported for Cc1cc(O)c(-c2ccc([C@@H](C)CN)cc2)c2c1[nH]c(=O)c1sccc12 in the records?
Found: 0.0057

Lookup: What value of measured IC50 is listed for Cc1cc(O)c(-c2ccc([C@@H](C)CN(C)C)cc2)c2c1[nH]c(=O)c1sccc12 ?
Found: 0.032

* * *

Give pIC50 for every item shown.
Tested on: 786-0
Experiment: Cytotoxicity against human 786-O cells assessed as decrease in cell viability after 72 hrs by MTT assay
Assay type: functional, cell-based
Settings: 786-0, 72 h
Please note pIC50 is a logarithmic value: minus log10 of concentration in mol/L. Answer with that number alone.

Lookup: What does the record list as pIC50 for CC(=O)c1cnc2ccc(-c3cc(Cl)c(O)c(Cl)c3)nc2c1N[C@H]1CC[C@H](CN(C)C)CC1 ?
Found: 7.62

Lookup: Need pIC50 of Cc1cc(O)c(-c2ccc([C@@H](C)CN)cc2)c2c1[nH]c(=O)c1sccc12 , thanks.
Found: 7.36

* * *

Test system: RMG-I
Assay: Cytotoxicity against human RMG-1 cells assessed as decrease in cell viability after 72 hrs by CCK8 assay
Assay type: functional, cell-based
value-kind: pIC50
pIC50 is defined as minus the log10 of a concentration measured in mol/L.

Lookup: Please state recorded pIC50 (tested on RMG-I) of Cc1cc(O)c(-c2ccc([C@@H](C)CN)cc2)c2c1[nH]c(=O)c1sccc12
Found: 7.82

* * *

Test system: OVCAR-3
Assay: Cytotoxicity against human OVCAR3 cells assessed as decrease in cell viability after 72 hrs by CCK8 assay
Type: functional, cell-based
Conditions: OVCAR-3, 72 h
value-kind: pIC50
# pIC50 = -log10(concentration in molar units)

Lookup: Sample Cc1cc(O)c(-c2ccc([C@@H](C)CN)cc2)c2c1[nH]c(=O)c1sccc12 — what was its pIC50?
Found: 7.92

Value source: ChEMBL document CHEMBL4261482
